system.name: human glucagon receptor (human, UniProt P47871 26-477)
assay.explanation: cell-based or functional assay
Provide the recorded cAMP EC50 for the entries that follow.

binder: IP357 (Fc fusion) YSEGTFTSDFSKLLEEEAVRLFIEFLLAGGGGGGSGGGGSGGGGSGGGGSATHTCPPC
cAMP EC50: 110 nM
//
binder: IP372 (Fc fusion) YSEGTFTSDYSIYLDEEAVRLFIEWLLAGGGGGGGSGGGGSGGGGSGGGGSACPPC
cAMP EC50: > 3880 nM
//
binder: IP410 (Fc fusion) YSEGTFTSLYRIHKEEEAVRLFIEKLLAGGGSGGGGSGGGGSGGGGSGGGGSGGGGSGGGGSGGGGSACPPC
cAMP EC50: > 7.99 nM
//
binder: IP371 (Fc fusion) YSEGMHTSDLSKLLEEEAVRLFIEWLLAGGGGGGGSGGGGSGGGGSGGGGSACPPC
cAMP EC50: > 6560 nM
//
binder: IP304 (Fc fusion) YSEGTFTSDVSSYLERQAIEEFIAWLLKGGAAAGGSGSTASSGSGSATGGGGAATHTCPPC
cAMP EC50: 2600 nM
//
binder: IP239 (Fc fusion) YSEGTFTSDYSKLLEEEAVRLFIEWLVKGPAAAGGSGSTASSGSGSATGGGGAACPPCPAPEF
cAMP EC50: > 990 nM
//
binder: IP360 (Fc fusion) YSEGTFTSDYRILLEEEAVRLFIEWLLAGGGGGGSGGGGSGGGGSGGGGSATHTCPPC
cAMP EC50: 63 nM
//
binder: IP415 (Fc fusion) HSQGTFTSDYSKILEEEAVRLFIEWLLAGGGSGGGGSGGGGSGGGGSGGGGSGGGGSGGGGSGGGGSACPPC
cAMP EC50: 0.018 nM
//
binder: IP363 (Fc fusion) YSEGTFTSDYRMLKEEEAVRLFIEWLLAGGGGGGSGGGGSGGGGSGGGGSATHTCPPC
cAMP EC50: 560 nM
//
binder: IP326 (Fc fusion) YSEGTFTSDYSKLLEEEAVRLFIEWLLAGGGGGGGSGGGGSGGGGSGGGGSGGGGSA
cAMP EC50: 15 nM

Hi team, please reply with cAMP EC50 for each item in this list.
1. IP296 (Fc fusion) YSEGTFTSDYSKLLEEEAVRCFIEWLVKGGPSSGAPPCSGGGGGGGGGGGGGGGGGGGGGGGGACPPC
2. IP088 (Fc fusion) YSEGTFTSDYSKLLEEEAVRLFIEWLVKGPAAAGGSGSTASSGSGSATGGGGAATHTCPPCPAPEF
3. IP253 (Fc fusion) YSEGTFTSDYSKLLDEEAVRLFIEWLLAGAPPGGSGSTASSGSGSATGGGGAATHTCPPCPAPEF

1. > 1120 nM
2. 460 nM
3. 78 nM
